# targetSystem: FGFR1 (Homo sapiens, UniProt P11362)
# Construct: made in house; host or cells: E. coli derived from BL21, infected with T7 phage
# Sequence (P11362 22-822): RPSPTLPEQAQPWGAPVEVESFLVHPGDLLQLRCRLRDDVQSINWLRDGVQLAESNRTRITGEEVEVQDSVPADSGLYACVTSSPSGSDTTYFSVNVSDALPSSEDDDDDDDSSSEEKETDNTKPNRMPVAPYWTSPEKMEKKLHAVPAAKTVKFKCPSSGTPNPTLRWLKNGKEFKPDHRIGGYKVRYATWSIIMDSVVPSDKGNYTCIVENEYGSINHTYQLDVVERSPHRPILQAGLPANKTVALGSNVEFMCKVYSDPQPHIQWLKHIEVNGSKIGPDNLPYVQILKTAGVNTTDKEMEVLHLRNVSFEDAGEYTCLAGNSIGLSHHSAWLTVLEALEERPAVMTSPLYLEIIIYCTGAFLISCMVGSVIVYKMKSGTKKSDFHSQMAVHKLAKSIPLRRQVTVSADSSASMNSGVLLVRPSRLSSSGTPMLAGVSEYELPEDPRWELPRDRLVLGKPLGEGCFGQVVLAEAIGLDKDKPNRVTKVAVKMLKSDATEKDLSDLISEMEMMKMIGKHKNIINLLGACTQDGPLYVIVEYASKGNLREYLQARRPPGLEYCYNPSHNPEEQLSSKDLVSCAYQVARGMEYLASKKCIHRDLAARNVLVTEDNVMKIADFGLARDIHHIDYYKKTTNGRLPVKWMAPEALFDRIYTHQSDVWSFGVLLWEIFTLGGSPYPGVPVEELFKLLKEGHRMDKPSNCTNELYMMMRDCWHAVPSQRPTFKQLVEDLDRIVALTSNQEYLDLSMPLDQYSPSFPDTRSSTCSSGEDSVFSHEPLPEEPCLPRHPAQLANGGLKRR
# measurementProtocol: Kinase binding assay (kinase-tagged T7 phage, affinity beads, qPCR readout), FGFR1
# conditionParameters: FGFR binding data
assayMetric: Kd

// below: answered compounds
compound	Kd
C=CC(=O)N(C)c1ccc2c(c1)c(C)cn2-c1nc(Nc2ccnn2C)ncc1C	> 1000 nM
C=CC(=O)Nc1ccc2c(-c3nc(Nc4ccc(N5CCOCC5)nc4)ncc3Cl)cn(C)c2c1	0.1 to 100 nM

Entry `C=CC(=O)Nc1ccc2c(c1)c(C)cn2-c1nc(Nc2cnn(CC(C)(C)O)c2)ncc1F` ; Kd = 0.1 to 100 nM

Entry `C=CC(=O)Nc1ccc2c(c1)c(C)cn2-c1cc(Nc2cn(C)nc2C)ncc1C` ; Kd = 250 to 1000 nM

Entry `Cc1cn(-c2nc(Nc3cnn(C[C@@H](C)O)c3)ncc2F)c2ncc(NC(=O)/C=C/CN3CCOCC3)cc12` ; Kd = 250 to 1000 nM

Entry `CC#CC(=O)Nc1cnc2c(c1)c(C)cn2-c1nc(Nc2ccnn2C)ncc1F` ; Kd = > 1000 nM

Entry C=CC(=O)Nc1cc(C)c2c(c1)c(C)cn2-c1nc(Nc2cnn(C)c2)ncc1Cl [Example 71] ; Kd = > 1000 nM

Entry `C=CC(=O)Nc1ccc2c(c1)c(C)cn2-c1ncnc(Nc2cn(C)nc2C)n1` ; Kd = 250 to 1000 nM

Entry `C=CC(=O)Nc1cnc2c(c1)c(C)cn2-c1nc(Nc2ccnn2C)ncc1C` ; Kd = 0.1 to 100 nM

Entry `C=CC(=O)Nc1ccc2c(ccn2-c2nc(Nc3cn(C)nc3OCC)ncc2Cl)c1` ; Kd = 250 to 1000 nM

Entry `C=CC(=O)Nc1ccc2c(c1)c(C)cn2-c1nc(Nc2ccc(N3CCOCC3)cc2)ncc1F` ; Kd = 0.1 to 100 nM

---

# Lookup of reported Kd keyed by entry
# targetSystem: FGFR3 (V555M) (Homo sapiens, UniProt P22607, V555M)
# Construct: made in house; host or cells: E. coli derived from BL21, infected with T7 phage
# Sequence (P22607 23-806 V555M): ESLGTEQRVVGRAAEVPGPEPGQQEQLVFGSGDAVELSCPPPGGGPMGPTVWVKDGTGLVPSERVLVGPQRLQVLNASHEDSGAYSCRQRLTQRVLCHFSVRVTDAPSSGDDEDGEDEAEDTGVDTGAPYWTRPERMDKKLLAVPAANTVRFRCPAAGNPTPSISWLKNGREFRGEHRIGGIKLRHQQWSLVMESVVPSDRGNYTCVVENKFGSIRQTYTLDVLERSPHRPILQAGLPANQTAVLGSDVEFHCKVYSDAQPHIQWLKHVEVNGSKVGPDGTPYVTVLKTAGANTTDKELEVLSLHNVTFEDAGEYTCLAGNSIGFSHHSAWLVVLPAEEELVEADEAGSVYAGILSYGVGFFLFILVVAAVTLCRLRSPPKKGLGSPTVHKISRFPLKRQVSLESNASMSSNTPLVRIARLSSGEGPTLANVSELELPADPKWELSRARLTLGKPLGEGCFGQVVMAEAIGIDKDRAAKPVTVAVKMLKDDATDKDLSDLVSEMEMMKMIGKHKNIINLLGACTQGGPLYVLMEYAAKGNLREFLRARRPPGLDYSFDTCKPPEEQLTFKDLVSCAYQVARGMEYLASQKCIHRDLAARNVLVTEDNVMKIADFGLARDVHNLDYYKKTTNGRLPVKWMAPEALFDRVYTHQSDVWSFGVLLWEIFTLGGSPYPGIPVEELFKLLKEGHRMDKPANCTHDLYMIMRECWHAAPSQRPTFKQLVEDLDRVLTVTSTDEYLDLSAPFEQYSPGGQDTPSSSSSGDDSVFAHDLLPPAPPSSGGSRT
# measurementProtocol: Kinase binding assay (kinase-tagged T7 phage, affinity beads, qPCR readout), FGFR3 (V555M)
# conditionParameters: FGFR binding data

// below: answered compounds
lineNotation	val
C=CC(=O)Nc1ccc2c(-c3ccnc(Nc4ccc(N5CCOCC5)cc4)n3)cn(C)c2c1	0.1 to 100 nM
C=CC(=O)Nc1ccc2c(c1)c(C)cn2-c1nc(Nc2cc(C)sn2)ncc1F	0.1 to 100 nM
C=CC(=O)Nc1ccc2c(-c3ccnc(Nc4cn(C)nc4C)n3)cn(C)c2c1	0.1 to 100 nM

Now for the compound whose Kd we want.
Entry `C=CC(=O)Nc1ccc2c(c1)c(C)nn2-c1nc(Nc2ccnn2C)ncc1C` ; Kd = 250 to 1000 nM

---

# Lookup of reported Kd keyed by entry
# targetSystem: FGFR2 (Homo sapiens)
# Construct: made in house; host or cells: E. coli derived from BL21, infected with T7 phage
# Sequence (P21802 22-821): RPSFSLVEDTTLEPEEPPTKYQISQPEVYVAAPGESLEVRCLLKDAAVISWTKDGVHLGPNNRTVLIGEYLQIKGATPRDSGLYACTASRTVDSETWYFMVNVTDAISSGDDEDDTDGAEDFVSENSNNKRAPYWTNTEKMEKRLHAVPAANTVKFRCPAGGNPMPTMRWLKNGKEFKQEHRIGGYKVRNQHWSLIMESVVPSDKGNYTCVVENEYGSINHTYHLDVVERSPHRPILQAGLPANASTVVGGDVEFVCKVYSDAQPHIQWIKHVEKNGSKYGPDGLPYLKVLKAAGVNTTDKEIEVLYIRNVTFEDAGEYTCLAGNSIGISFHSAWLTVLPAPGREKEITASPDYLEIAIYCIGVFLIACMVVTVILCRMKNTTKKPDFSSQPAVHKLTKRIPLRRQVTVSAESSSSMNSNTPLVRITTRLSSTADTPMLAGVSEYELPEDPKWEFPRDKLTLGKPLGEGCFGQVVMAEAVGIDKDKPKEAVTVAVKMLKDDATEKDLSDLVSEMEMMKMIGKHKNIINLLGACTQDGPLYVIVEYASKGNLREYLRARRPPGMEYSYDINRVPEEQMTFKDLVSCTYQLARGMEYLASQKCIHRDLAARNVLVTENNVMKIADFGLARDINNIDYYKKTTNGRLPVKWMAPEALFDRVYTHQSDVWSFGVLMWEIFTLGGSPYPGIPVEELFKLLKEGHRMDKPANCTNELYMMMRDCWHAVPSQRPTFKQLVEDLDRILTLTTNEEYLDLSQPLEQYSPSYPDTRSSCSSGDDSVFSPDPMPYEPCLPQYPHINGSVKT
# measurementProtocol: Kinase binding assay (kinase-tagged T7 phage, affinity beads, qPCR readout), FGFR2
# conditionParameters: FGFR binding data

molecule	targetSystem	Kd
C=CC(=O)Nc1ccc2c(c1)c(C)cn2-c1nc(Nc2ccn(CCO)n2)ncc1C	FGFR2 (Homo sapiens)	0.1 to 100 nM
C=CC(=O)Nc1ccc2c(c1)c(C)cn2-c1nc(Nc2cnn3c2CCC3)ncc1F	FGFR2 (Homo sapiens)	0.1 to 100 nM
C=CC(=O)Nc1ccc2c(-c3nc(Nc4ccc(N5CCOCC5)cc4)ncc3C)cn(C)c2c1	FGFR2 (Homo sapiens)	0.1 to 100 nM
C=CC(=O)Nc1ccc2c(ccn2-c2nc(Nc3ccccc3OCC)ncc2Cl)c1	FGFR2 (Homo sapiens)	> 1000 nM
C=CC(=O)Nc1cc(C)c2c(c1)c(C)cn2-c1nc(Nc2cnn(C)c2)ncc1Cl [Example 71]	FGFR2 (Homo sapiens)	> 1000 nM

Entry `C=CC(=O)Nc1ccc2c(c1)c(C)cn2-c1nc(Nc2cn(CC(F)(F)F)nc2C)ncc1F` ; Kd = 0.1 to 100 nM

Entry `C=CC(=O)Nc1ccc2c(c1)c(C)cn2-c1nc(Nc2cnn(C3CCN(C4COC4)CC3)c2)ncc1Cl` ; Kd = 0.1 to 100 nM

Entry `C=CC(=O)Nc1ccc2c(c1)c(C)cn2-c1ncnc(Nc2cnn(C)c2)n1` ; Kd = 0.1 to 100 nM

Entry `C=CC(=O)Nc1ccc2c(ccn2-c2nc(Nc3ccc(N4CCOCC4)c(F)c3)ncc2Cl)c1C` ; Kd = 250 to 1000 nM

Entry `C=CC(=O)Nc1ccc2c(-c3ccnc(Nc4cnn(C5CCC5)c4)n3)cn(C)c2c1` ; Kd = 0.1 to 100 nM

---

# targetSystem: FGFR2 (Homo sapiens)
# Construct: made in house; host or cells: E. coli derived from BL21, infected with T7 phage
# measurementProtocol: Kinase binding assay (kinase-tagged T7 phage, affinity beads, qPCR readout), FGFR2
# conditionParameters: FGFR binding data
assayMetric: Kd

// below: answered compounds
lineNotation	val
C=CC(=O)Nc1cnc2c(c1)c(C)cn2-c1nc(Nc2cnn(CCO)c2)ncc1C	0.1 to 100 nM
C=CC(=O)Nc1ccc2c(c1)c(C)cn2-c1nc(Nc2ccc3ncnn3c2)ncc1Cl	0.1 to 100 nM
Cc1nn(C)cc1Nc1ncc(F)c(-n2cc(C)c3cc(NC(=O)/C=C/CN4CCOCC4)cnc32)n1	> 1000 nM

Now for the compound whose Kd we want.
Entry `C=CC(=O)Nc1ccc2c(-c3ccnc(Nc4ccn(CC)n4)n3)cn(C)c2c1` ; Kd = 250 to 1000 nM

---

# targetSystem: FGFR1 (Homo sapiens)
# Construct: made in house; host or cells: E. coli derived from BL21, infected with T7 phage
# measurementProtocol: Kinase binding assay (kinase-tagged T7 phage, affinity beads, qPCR readout), FGFR1
# conditionParameters: FGFR binding data
# Lookup of reported Kd keyed by entry

molecule	val
C=CC(=O)Nc1ccc2c(c1)c(C)cn2-c1nc(Nc2conc2C)ncc1F	100 to 250 nM

Entry C=CC(=O)Nc1ccc2c(c1)c(C)cn2-c1nc(Nc2cnn(C3CCOC3)c2)ncc1F (stereo not drawn) ; Kd = 0.1 to 100 nM

Entry `C=CC(=O)Nc1ccc2c(c1)c(C)cn2-c1nc(Nc2cn(C)nc2OC)ncc1C#N` ; Kd = 100 to 250 nM

---

# Lookup of reported Kd keyed by entry
# targetSystem: FGFR2 (Homo sapiens)
# Construct: made in house; host or cells: E. coli derived from BL21, infected with T7 phage
# measurementProtocol: Kinase binding assay (kinase-tagged T7 phage, affinity beads, qPCR readout), FGFR2
# conditionParameters: FGFR binding data

// below: answered compounds
compound	targetSystem	Kd
C=CC(=O)Nc1ccc2c(-c3nc(Nc4ccc(N5CCN(C)CC5)nc4)ncc3Cl)cn(C)c2c1	FGFR2 (Homo sapiens)	0.1 to 100 nM
C=CC(=O)Nc1ccc2c(c1)c(C)cn2-c1nc(Nc2cnn(C3CCOC3)c2)ncc1F (stereo not shown)	FGFR2 (Homo sapiens)	0.1 to 100 nM
Cc1nn(C)cc1Nc1ncc(F)c(-n2cc(C)c3cc(NC(=O)/C=C/CN(C)C)cnc32)n1	FGFR2 (Homo sapiens)	100 to 250 nM

Now for the compound whose Kd we want.
Entry `C=CC(=O)Nc1cnc2c(c1)c(C)cn2-c1nc(Nc2ccn(CC)n2)ncc1C` ; Kd = 0.1 to 100 nM

---

# targetSystem: FGFR3 (Homo sapiens, UniProt P22607)
# Construct: made in house; host or cells: E. coli derived from BL21, infected with T7 phage
# Sequence (P22607 23-806): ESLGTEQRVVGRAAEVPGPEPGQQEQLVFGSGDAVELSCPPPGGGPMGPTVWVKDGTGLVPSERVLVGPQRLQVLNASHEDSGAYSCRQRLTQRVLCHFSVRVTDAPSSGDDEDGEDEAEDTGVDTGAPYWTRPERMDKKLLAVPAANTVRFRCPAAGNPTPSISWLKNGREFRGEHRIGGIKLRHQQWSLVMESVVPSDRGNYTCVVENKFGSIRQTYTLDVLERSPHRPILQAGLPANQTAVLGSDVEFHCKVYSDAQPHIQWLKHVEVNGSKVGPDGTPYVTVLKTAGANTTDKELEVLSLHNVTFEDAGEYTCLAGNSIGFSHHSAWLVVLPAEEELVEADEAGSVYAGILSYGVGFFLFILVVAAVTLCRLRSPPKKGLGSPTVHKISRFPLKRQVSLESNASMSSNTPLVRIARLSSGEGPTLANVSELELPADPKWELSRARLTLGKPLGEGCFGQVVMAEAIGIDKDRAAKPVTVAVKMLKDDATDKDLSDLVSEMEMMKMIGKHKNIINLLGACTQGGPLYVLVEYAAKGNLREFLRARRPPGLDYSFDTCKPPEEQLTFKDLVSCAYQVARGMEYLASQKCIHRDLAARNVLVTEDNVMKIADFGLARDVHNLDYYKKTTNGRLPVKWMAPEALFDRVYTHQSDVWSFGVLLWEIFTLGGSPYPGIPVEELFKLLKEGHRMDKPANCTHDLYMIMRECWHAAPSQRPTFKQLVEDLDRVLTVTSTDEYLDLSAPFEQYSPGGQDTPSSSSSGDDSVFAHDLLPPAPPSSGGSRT
# measurementProtocol: Kinase binding assay (kinase-tagged T7 phage, affinity beads, qPCR readout), FGFR3
# conditionParameters: FGFR binding data
assayMetric: Kd

// below: answered compounds
lineNotation	assayMetric	val
C=CC(=O)Nc1ccc2c(-c3nc(Nc4cn(CC(F)F)nc4C)ncc3F)cn(C)c2c1	Kd	0.1 to 100 nM
CCn1cc(Nc2ncc(F)c(-n3cc(C)c4cc(NC(=O)/C=C/CN(C)C)cnc43)n2)c(C)n1	Kd	0.1 to 100 nM
C=CC(=O)Nc1ccc2c(c1)c(C)cn2-c1nc(Nc2cn(C(C)(C)C#N)nc2C)ncc1F	Kd	0.1 to 100 nM
C=CC(=O)Nc1ccc2c(ccn2-c2nc(Nc3ccc(OCCN4CCOCC4)cc3)ncc2Cl)c1C	Kd	100 to 250 nM
C=CC(=O)Nc1ccc2c(c1)c(C)cn2-c1cc(Nc2cnn(C)c2)ncc1C	Kd	0.1 to 100 nM
C#CC(=O)Nc1ccc2c(-c3ccnc(Nc4cnn(CCO)c4)n3)cn(C)c2c1	Kd	0.1 to 100 nM
C=CC(=O)Nc1ccc2c(ccn2-c2nc(Nc3cn(C)nc3OCC)ncc2Cl)c1	Kd	> 1000 nM

Entry `C=CC(=O)Nc1cnc2c(c1)c(C)cn2-c1nc(Nc2ccn(CC)n2)ncc1C` ; Kd = 0.1 to 100 nM
